# EXPERIMENT SUMMARY: Pharmacokinetics of Compound 1 in combination with MK-3475 in subjects with various cancers
# Format: in vivo, human
# TEST PARAMETERS: human, plasma, oral, 100 mg, Diagnosis OC, first dose, geometric mean
PARAMETER: Cmax (nM)
One number for each entry, in nM.

Looking up NS(=O)(=O)NCCNc1nonc1C(=NO)Nc1ccc(F)c(Br)c1 [Compound 1] , I found its Cmax recorded as 886

====

# EXPERIMENT SUMMARY: Pharmacokinetics of Compound 1 in combination with MK-3475 in subjects with various cancers
# Format: in vivo, human
# TEST PARAMETERS: human, plasma, oral, 100 mg, Cohort 5, 100 mg BID, steady state C1D8, mean ± SD; read-out: AUC0-12 h (converted)
PARAMETER: AUC(0-t) (µM·h)
One number for each entry, in µM·h.

Looking up NS(=O)(=O)NCCNc1nonc1C(=NO)Nc1ccc(F)c(Br)c1 , I found its AUC(0-t) recorded as 3.79

meta.source: patent US20180353483A1
